- Tested on: Hepacivirus hominis
- TEST DESCRIPTION: Inhibition of HCV NS3 helicase ATP hydrolysis activity overexpressed in Escherichia coli BL21(DE3) assessed as inhibition of inorganic phosphate release by AM/MG-based colometric analysis in the presence of M13 ssDNA
Calls of active or inactive are those of the source. How the calls were made is not given here.
OUTCOME MEASURE: inhibition

INSERT INTO measurements (molecule, outcome_measure, value_observed) VALUES
  ('CC(C)=CCOc1c2occc2cc2ccc(=O)oc12', 'inhibition', 'inactive'),
  ('CC1(C)CC[C@]2(C(=O)O)CC[C@]3(C)C(=CC[C@@H]4[C@@]5(C)CC[C@H](O)C(C)(C)[C@@H]5CC[C@]43C)[C@@H]2C1', 'inhibition', 'inactive'),
  ('O=C(/C=C/c1ccccc1)NCCCCNC(=O)Cc1ccc(O)cc1', 'inhibition', 'inactive'),
  ('O=C(O)c1cc(O)c(O)c(O)c1', 'inhibition', 'inactive'),
  ('C=C1CC[C@@H]2[C@](C)(CCC[C@]2(C)C(=O)O)[C@H]1CCc1ccoc1', 'inhibition', 'inactive'),
  ('COc1ccc(-c2oc3c(CC=C(C)C)c(O)cc(O)c3c(=O)c2O)cc1', 'inhibition', 'inactive'),
  ('C[C@H]1O[C@@H](Oc2c(-c3cc(O)c(O)c(O)c3)oc3cc(O)cc(O)c3c2=O)[C@@H](O)[C@@H](O)[C@@H]1O', 'inhibition', 'inactive');

// below: inhibition requested for another molecule
Qu. Param readout = inhibition; param system = Hepacivirus hominis; param query = CC(C)=CCC[C@](C)(O[C@@H]1O[C@H](CO[C@@H]2O[C@H](CO)[C@@H](O)[C@H](O)[C@H]2O)[C@@H](O)[C@H](O)[C@H]1O)[C@H]1CC[C@]2(C)[C@@H]1[C@H](O)C[C@@H]1[C@@]3(C)CC[C@H](O[C@@H]4O[C@H](CO)[C@@H](O)[C@H](O)[C@H]4O)C(C)(C)[C@@H]3CC[C@]12C ; response: value
Ans. inactive
